System: Shewanella oneidensis
Assay: Antimicrobial activity against Shewanella oneidensis assessed as lethal concentration
Format: functional
Calls of active or inactive are those of the source. The rule behind the calls is not given here.

substance | Activity
H-IFGAIAGLLKNIF-NH2 [Meucin-13] | 6.2 µM
H-IFGAIAGFIKNGW-OH | inactive
H-IFGAIAGFIKNIW-OH | inactive
H-IFGAIAGFIKNIW-NH2 | 76.98 µM
H-IFGAIAGFIKNGW-NH2 | inactive

---

Tested on: Stenotrophomonas
Experiment: Antimicrobial activity against Stenotrophomonas YC-1 assessed as lethal concentration
Assay type: functional
Active and inactive are the calls of the source. The calls are words filed in the database; no cut-off is given here.

substance | Activity
H-IFGAIAGFIKNGW-NH2 | inactive
H-IFGAIAGFIKNIW-OH | inactive
H-IFGAIAGFIKNIW-NH2 | 76.98 µM
H-IFGAIAGFIKNGW-OH | inactive
H-IFGAIAGLLKNIF-NH2 [Meucin-13] | 6.2 µM

---

System: Micrococcus luteus
Test: Antimicrobial activity against Micrococcus luteus assessed as lethal concentration
Assay type: functional
Active and inactive are the calls of the source. No cut-off for these calls is given here.

substance | Activity
H-IFGAIAGFIKNIW-NH2 | 5.95 µM
H-IFGAIAGFIKNIW-OH | inactive
H-IFGAIAGFIKNGW-OH | inactive
H-IFGAIAGLLKNIF-NH2 [Meucin-13] | 2.9 µM
H-IFGAIAGFIKNGW-NH2 | 14.1 µM

---

Tested on: Agrobacterium tumefaciens
Assay: Antimicrobial activity against Agrobacterium tumefaciens assessed as lethal concentration
Format: functional
Calls of active or inactive are those of the source. The rule behind the calls is not given here.

substance | tgt | Activity
H-IFGAIAGFIKNIW-OH | Agrobacterium tumefaciens | inactive
H-IFGAIAGLLKNIF-NH2 [Meucin-13] | Agrobacterium tumefaciens | 11.8 µM
H-IFGAIAGFIKNGW-NH2 | Agrobacterium tumefaciens | inactive
H-IFGAIAGFIKNGW-OH | Agrobacterium tumefaciens | inactive
H-IFGAIAGFIKNIW-NH2 | Agrobacterium tumefaciens | 20.79 µM
